Target: human phosphodiesterase 5 (PDE 5) (Homo sapiens)
Counter-ions that a name gives are not always drawn.
valueKind: IC50 (nM)

{"compound": "COc1ccc(CC(C)(N)CNc2nc(-c3c(C)nc4c(OCc5c(F)cccc5F)cccn34)nc3c2C(C)(C)C(=O)N3)cc1 (racemic)", "measurementUnits": "nM", "recordedValue": 110}
{"compound": "Cc1nc2c(OCc3c(F)cccc3F)cccn2c1-c1nc(NCC2(O)CC2)c2c(n1)NC(=O)C2(C)C", "measurementUnits": "nM", "recordedValue": 4.6}
{"compound": "Cc1nc2c(OCc3c(F)cccc3F)cccn2c1-c1nc(I)c2c(n1)NC(=O)C2(C)C", "measurementUnits": "nM", "recordedValue": 300}
{"compound": "Cc1nc2c(OCc3c(F)cccc3F)cccn2c1-c1nnc2c(n1)NC(=O)C2(C)C", "measurementUnits": "nM", "recordedValue": 260}

(I) Cc1nc2c(OCc3c(F)cccc3F)cccn2c1-c1nc(NCC(C)(C)N)c2c(n1)NC(=O)C2(C)C
(II) COCC(C)(N)CNc1nc(-c2c(C)nc3c(OCc4c(F)cccc4F)cccn23)nc2c1C(C)(C)C(=O)N2 (single isomer, unassigned; ent-4) [Example 45]
(III) Cc1nc2c(OCc3c(F)ccc(F)c3F)cccn2c1-c1nc2c(c(C(=O)N3CC(N)C(F)(F)C3)n1)C(C)(C)C(=O)N2 (racemic) [Example 61, trifluoroacetate]
Prompt: Arrange these 3 compounds in increasing order of IC50. Your task in answering is to list the labels in the requested order.
Completion: I, II, III
(I: 3.6 nM, II: 9.8 nM, III: 730 nM)

====

Molecular target: recombinant guanylate cyclase reporter cell line (Rattus norvegicus, UniProt P19686+P20595)
Construct: expressed in transfected cells
Sequence (P19686 whole entry): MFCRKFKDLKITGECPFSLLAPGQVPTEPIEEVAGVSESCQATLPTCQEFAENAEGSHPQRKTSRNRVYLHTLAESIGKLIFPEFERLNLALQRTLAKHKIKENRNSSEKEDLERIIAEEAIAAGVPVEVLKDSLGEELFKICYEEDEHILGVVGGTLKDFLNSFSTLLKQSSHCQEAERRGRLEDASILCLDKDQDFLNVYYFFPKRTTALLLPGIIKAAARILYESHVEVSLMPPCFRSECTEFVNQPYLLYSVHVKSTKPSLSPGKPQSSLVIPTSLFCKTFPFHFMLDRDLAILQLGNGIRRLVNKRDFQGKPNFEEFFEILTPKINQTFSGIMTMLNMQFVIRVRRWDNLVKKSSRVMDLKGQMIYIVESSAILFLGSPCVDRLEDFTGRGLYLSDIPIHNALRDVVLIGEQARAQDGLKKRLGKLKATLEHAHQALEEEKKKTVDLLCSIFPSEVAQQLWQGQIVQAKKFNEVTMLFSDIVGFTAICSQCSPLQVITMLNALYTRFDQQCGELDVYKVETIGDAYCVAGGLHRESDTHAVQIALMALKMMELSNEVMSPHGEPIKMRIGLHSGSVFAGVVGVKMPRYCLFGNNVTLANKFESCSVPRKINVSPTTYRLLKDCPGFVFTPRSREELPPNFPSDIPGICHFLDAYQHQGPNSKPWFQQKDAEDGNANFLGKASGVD
Sequence (P20595 whole entry): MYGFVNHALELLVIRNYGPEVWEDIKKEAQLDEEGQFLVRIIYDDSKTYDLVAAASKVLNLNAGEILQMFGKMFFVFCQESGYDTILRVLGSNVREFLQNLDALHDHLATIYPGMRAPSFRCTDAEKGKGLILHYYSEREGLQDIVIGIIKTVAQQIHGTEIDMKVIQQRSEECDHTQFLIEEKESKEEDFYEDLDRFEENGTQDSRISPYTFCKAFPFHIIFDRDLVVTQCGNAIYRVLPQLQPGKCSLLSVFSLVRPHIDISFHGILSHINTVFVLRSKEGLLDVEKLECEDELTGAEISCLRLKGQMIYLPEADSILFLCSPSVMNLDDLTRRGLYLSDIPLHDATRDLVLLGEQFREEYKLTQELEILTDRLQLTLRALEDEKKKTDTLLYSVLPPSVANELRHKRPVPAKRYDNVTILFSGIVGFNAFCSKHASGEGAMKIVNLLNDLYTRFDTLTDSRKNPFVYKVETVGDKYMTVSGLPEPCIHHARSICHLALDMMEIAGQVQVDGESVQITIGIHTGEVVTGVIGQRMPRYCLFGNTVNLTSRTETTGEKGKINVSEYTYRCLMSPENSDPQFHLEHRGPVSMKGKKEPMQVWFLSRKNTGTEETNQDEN
Test: Effect on a recombinant guanylate cyclase reporter cell line (B-2)
Type: cell-based
Conditions: MEC = minimum effective concentration, in some cases mean values for individual determinations
valueKind: MEC (µM)

Before answering, review these 5 worked examples.
{"compound": "Cc1nc2c(OCc3c(F)ccc(F)c3F)cccn2c1-c1nc2c(c(C(=O)NCCC(F)(F)F)n1)C(C)(C)C(=O)N2", "MEC [µM]": 0.3}
{"compound": "Cc1nc2c(OCc3c(F)cccc3F)cccn2c1-c1nc(NC[C@H](O)CO)c2c(n1)NC(=O)C2(C)C", "MEC [µM]": 3}
{"compound": "Cc1nc2c(OCc3c(F)ccc(F)c3F)cccn2c1-c1nc(NCC(C)(C)O)c2c(n1)NC(=O)C2(C)C", "MEC [µM]": 1}
{"compound": "Cc1nc2c(OCc3c(F)cccc3F)cccn2c1-c1nc(NCC(C)(N)C(F)F)c2c(n1)NC(=O)C2(C)C (racemic)", "MEC [µM]": 0.3}
{"compound": "Cc1nc2c(OCc3c(F)cccc3F)cccn2c1-c1nc(NCCN2CCC(F)(F)C2)c2c(n1)NC(=O)C2(C)C", "MEC [µM]": 3}

(A) Cc1nc2c(OCc3c(F)ccc(F)c3F)cccn2c1-c1nc2c(c(C(=O)N3CCC(O)C3)n1)C(C)(C)C(=O)N2 (racemic)
(B) Cc1nc2c(OCc3c(F)cccc3F)cccn2c1-c1nc(CN)c2c(n1)NC(=O)C2(C)C
Prompt: For the pair A and B , which member has the lower MEC number? Write down the label of the entry you select.
Completion: B
